# Tested on: Trypanosoma cruzi
# experiment notes: Trypanocidal activity against Trypanosoma cruzi TINF/CH/1956/Tulahuen DTU 6 trypamastigotes derived from infected Balb/c albino mouse after 24 hrs by resazurin dye based assay
# Type: functional, organism-based
# condition parameters: TINF/CH/1956/Tulahuen DTU 6, 24 h
This section presents compounds with their documented pIC50 values.
Please note pIC50 is a logarithmic value: minus log10 of concentration in mol/L. Answer with that number alone.

COc1ccc(C(=O)CCN2CCN(c3ccc(F)cc3)CC2)cc1; 5.92

Asked: Need pIC50 of O=C(Cn1ccnc1[N+](=O)[O-])NCc1ccccc1 [BENZNIDAZOLE] , thanks.
Given back: 4.82

Asked: Same for O=C(CCN1CCN(c2ccc([N+](=O)[O-])cc2)CC1)c1ccc(F)c(Br)c1
Given back: 4.49

Asked: Same for COc1ccc(C(=O)CCN2CCN(c3ccc(Cl)cc3)CC2)cc1
Given back: 5.54

Asked: Same for COc1ccc(C(=O)CCN2CCN(c3ccc([N+](=O)[O-])cc3)CC2)cc1
Given back: 4.84

----------
This section presents molecules with their documented IC50 values.
# assay system: Superoxide dismutase [Cu-Zn] (Homo sapiens, UniProt P00441)
# Sequence (P00441 whole entry): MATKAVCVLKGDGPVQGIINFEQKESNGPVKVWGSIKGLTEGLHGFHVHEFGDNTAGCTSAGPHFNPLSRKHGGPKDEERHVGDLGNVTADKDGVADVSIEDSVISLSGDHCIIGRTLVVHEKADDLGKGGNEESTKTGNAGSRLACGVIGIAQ
# experiment notes: Inhibition of human erythrocyte CuZn-SOD by UV-Visible spectrophotometric method
Give the number; µM is assumed, so skip it.

COc1ccc(C(=O)CCN2CCN(c3ccc(Cl)cc3)CC2)cc1; 100

# evaluate next
Asked: # get_value(readout= IC50, system= Superoxide dismutase [Cu-Zn] (Homo sapiens, UniProt P00441)) for COc1ccc(C(=O)CCN2CCN(c3ccc(F)cc3)CC2)cc1
Given back: 146

----------
# System: Trypanosoma cruzi
# experiment notes: Trypanocidal activity against Trypanosoma cruzi MHOM/Pe/2011/Arequipa DTU 5 epimastigotes after 48 hrs by resazurin dye based assay
# Assay type: functional, organism-based
# condition parameters: MHOM/Pe/2011/Arequipa DTU 5, 48 h
Note to self: IC50 under 30 µM means yes, ties and anything higher get no.

O=C(CCN1CCN(c2ccc(F)cc2)CC1)c1ccc(C(F)(F)F)cc1; no
O=C(CCN1CCN(c2ccc([N+](=O)[O-])cc2)CC1)c1ccc(C(F)(F)F)cc1; yes
COc1ccc(C(=O)CCN2CCN(c3ccc(F)cc3)CC2)cc1OC; no
O=C(CCN1CCN(c2ccc(F)cc2)CC1)c1ccc(OC(F)(F)F)cc1; no
O=C(CCN1CCN(c2ccc(F)cc2)CC1)c1ccc(F)c(Cl)c1; yes
COc1ccc(C(=O)CCN2CCN(Cc3cccc(C)c3)CC2)cc1OC; yes
O=C(CCN1CCN(c2ccc(C(F)(F)F)cc2)CC1)c1ccccc1; yes
Cc1ccc(C(=O)CCN2CCN(c3ccc(F)cc3)CC2)cc1; no

Now let's try a different one.
Asked: Does the reported IC50 of the following compound sit strictly below 30 µM? O=C(CCN1CCN(c2ccc([N+](=O)[O-])cc2)CC1)c1ccc(F)c(Cl)c1
Given back: no

----------
This section presents compounds with their documented IC50 values.
# Test system: Trypanosoma cruzi
# experiment notes: Trypanocidal activity against Trypanosoma cruzi MHOM/Pe/2011/Arequipa DTU 5 epimastigotes after 48 hrs by resazurin dye based assay
# Assay type: functional, organism-based
# condition parameters: MHOM/Pe/2011/Arequipa DTU 5, 48 h
Give the number; µM is assumed, so skip it.

COc1ccc(C(=O)CCN2CCN(c3ccc([N+](=O)[O-])cc3)CC2)cc1OC; 94.5
O=C(CCN1CCN(c2ccc([N+](=O)[O-])cc2)CC1)c1ccc(F)c(F)c1; 85.2

Asked: Need IC50 of O=C(CCN1CCN(c2ccc(C(F)(F)F)cc2)CC1)c1ccc(F)c(Br)c1 , thanks.
Given back: 46.6

Asked: Same for O=C(CCN1CCN(c2ccc(F)cc2)CC1)c1ccccc1
Given back: 65.7

Asked: Same for COc1ccc(C(=O)CCN2CCN(Cc3ccccc3)CC2)cc1OC
Given back: 29.5
